The measurements presented in this section are drawn from PubChem BioAssay (NCI).

Test system: MCF7 breast
Assay: NCI-60 one-dose screen, 48 h (100 = growth as untreated, 0 = no growth, -100 = all killed)
Conditions: 10 µM unless noted
Procedure: Growth inhibition of the MCF7 human tumor cell line is measured as a screen for anti-cancer activity. Cells are grown in 96 well plates and exposed to the test compound for 48 hours. Compounds are tested at a single concentration, which is 10^-5 M for most compounds. The reported endpoint is percent growth (GI% or GIPRCNT), where numbers from 0 - 100% represent growth inhibition, and numbers from -100% - 0 represent cell death. For example, a value of 40 represents 60% growth inhibition. […]
About 83,000 compounds went through this panel and 20% of them were active in at least one assay; those are over-represented in the sample as a whole.
readout_kind: growth (%)
Quick reminder: number only, in %, skip the unit.

Reference set, count: 3
[
  {
    "compound": "O=C(Nn1c2c(sc1=NC1CC1)C(=O)c1ccccc1C2=O)c1cc2ccc1CCc1ccc(cc1)CC2",
    "units_label": "%",
    "value_reported": 11.5
  },
  {
    "compound": "CC(C)(C)[Si](C)(C)OC1[C@@H](CNC(=O)NC(=O)NC(N)=O)O[C@@H](n2cnc3c(NC(=O)Nc4ccccc4)ncnc32)[C@H]1O[Si](C)(C)C(C)(C)C (stereo not given in full)",
    "units_label": "%",
    "value_reported": 57.9
  },
  {
    "compound": "O=C(CN1C(=O)NC2NC(=O)NC21)N/N=C/c1ccccc1[N+](=O)[O-] (stereo not given)",
    "units_label": "%",
    "value_reported": 85.1
  }
]

## Input What value of growth has been recorded for this entry: `O=C1Nc2ccc(C(=O)O)cc2/C1=N/c1nnc(Sc2ccccc2)s1`
## Output 101

## Input What value of growth has been recorded for this entry: `S=c1sc2c(Cl)nc(-c3cccnc3)nc2n1-c1ccccc1`
## Output 3.63

## Input What value of growth has been recorded for this entry: `Cc1[nH]c(C(=O)Nc2ccccc2OC2CCNCC2)c(Cl)c1Cl`
## Output -45

## Input What value of growth has been recorded for this entry: COc1ccc2c(c1)N(CCO)C1=C(C(=O)OC1)C2c1cccc(F)c1 (stereo not given)
## Output 18.1

## Input What value of growth has been recorded for this entry: `COc1ccc2c(c1)CC[C@H](O)/C2=C/c1cc(OC)c(OC)c(OC)c1`
## Output 16

## Input What value of growth has been recorded for this entry: `Clc1cc(Cl)c(Cl)c(-c2nnc(SCc3ccncc3Br)o2)c1`
## Output 91.8

## Input What value of growth has been recorded for this entry: `N#Cc1c(-c2ccccc2)[nH]c2ncc(-c3ccccc3)n2c1=O`
## Output 71.3

---

Tested on: UACC-257 melanoma
Assay: NCI-60 one-dose screen, 48 h
Details: 10 µM unless noted
About 83,000 compounds went through this panel and 20% of them were active in at least one assay; those are over-represented in the sample as a whole. Active and inactive are the calls of the source. How the source made its calls: active means growth percent below 10; inactive means the rest.
Entry note: the call must match one of yes (1) = active, no (0) = inactive

[
  {
    "molecule": "O=S(=O)(NCCNc1nccc(-c2c(-c3ccc(F)c(O)c3)nc3occn23)n1)c1ccc(Cl)cc1",
    "category": "no (0)"
  },
  {
    "molecule": "COc1ccc(C(=O)/C=C/c2c(C(F)(F)F)nc3ccccn23)cc1OC",
    "category": "no (0)"
  },
  {
    "molecule": "O=C(/C=C/c1cccs1)Nc1ncc(Cc2ccccc2F)s1",
    "category": "no (0)"
  }
]

Now consider the entry below.
## Input Name the outcome recorded for `Cn1ccc(=O)c(C(=O)Nc2nsc3ccc([N+](=O)[O-])cc23)c1` in the assay.
## Output no (0)
